- Tested on: HO1-mCherry-hiPSC-derived 3D renal organoids
- experimental_details: Blind-coded screen, mCherry fluorescence of HMOX1 reporter in 3D organoids
- experimental_conditions: 3D 24h
measured_quantity: Prediction of toxicity by increase in fluorescence intensity

INSERT INTO measurements (compound, system_name, result_value) VALUES
  ('CC(C(=O)O)c1cccc(C(=O)c2ccccc2)c1 (stereo not shown)', 'HO1-mCherry-hiPSC-derived 3D renal organoids', 'N'),
  ('Nc1ccn(C[C@@H](CO)OCP(=O)(O)O)c(=O)n1', 'HO1-mCherry-hiPSC-derived 3D renal organoids', 'Y'),
  ('C[C@@H]1C[C@H]2[C@@H]3CCC4=CC(=O)C=C[C@]4(C)[C@@]3(F)[C@@H](O)C[C@]2(C)[C@@]1(O)C(=O)CO', 'HO1-mCherry-hiPSC-derived 3D renal organoids', 'N'),
  ('O=P1(NCCCl)OCCCN1CCCl (stereo not shown) [Ifosfamide]', 'HO1-mCherry-hiPSC-derived 3D renal organoids', 'Y');

###

- System: HO1-mCherry-hiPSC-derived 3D renal organoids
- experimental_details: Blind-coded screen, mCherry fluorescence of HMOX1 reporter in 3D organoids
- experimental_conditions: 3D 72h
- Procedure: H O 1-mCherry-hiPSC renal organoids (both flat and 3D) were incubated in a 4-fold dilution series of each compound for either 24 h or 72 h. Data on reporter expression are shown graphically in Figure 5. […] Fluorescence measurements were taken after 24h or 72h. […] All images used for fluorescence intensity analysis were taken with identical exposures and settings. All images were analysed using ImageJ. […]
measured_quantity: Prediction of toxicity by increase in fluorescence intensity

INSERT INTO measurements (compound, result_value) VALUES
  ('Nc1ccn(C[C@@H](CO)OCP(=O)(O)O)c(=O)n1', 'N'),
  ('C[C@@H]1C[C@H]2[C@@H]3CCC4=CC(=O)C=C[C@]4(C)[C@@]3(F)[C@@H](O)C[C@]2(C)[C@@]1(O)C(=O)CO', 'N'),
  ('O=P1(NCCCl)OCCCN1CCCl (stereo not shown) [Ifosfamide]', 'Y'),
  ('CC(C(=O)O)c1cccc(C(=O)c2ccccc2)c1 (stereo not shown)', 'N');

###

- System: HO1-mCherry-hiPSC-derived flat renal organoids
- experimental_details: Blind-coded screen, mCherry fluorescence of HMOX1 reporter in flat organoids
- experimental_conditions: Flat 24h
measured_quantity: Prediction of toxicity by increase in fluorescence intensity

INSERT INTO measurements (compound, result_value) VALUES
  ('O=P1(NCCCl)OCCCN1CCCl (stereo not shown) [Ifosfamide]', 'Y'),
  ('C[C@@H]1C[C@H]2[C@@H]3CCC4=CC(=O)C=C[C@]4(C)[C@@]3(F)[C@@H](O)C[C@]2(C)[C@@]1(O)C(=O)CO [Dexamethasone]', 'N'),
  ('Nc1ccn(C[C@@H](CO)OCP(=O)(O)O)c(=O)n1 [Cidofovir]', 'N'),
  ('CC(C(=O)O)c1cccc(C(=O)c2ccccc2)c1 (stereo not shown) [Ketoprofen]', 'Y');

###

- System: HO1-mCherry-hiPSC-derived flat renal organoids
- experimental_details: Blind-coded screen, mCherry fluorescence of HMOX1 reporter in flat organoids
- experimental_conditions: Flat 72h
measured_quantity: Prediction of toxicity by increase in fluorescence intensity

INSERT INTO measurements (compound, system_name, result_value) VALUES
  ('Nc1ccn(C[C@@H](CO)OCP(=O)(O)O)c(=O)n1 [Cidofovir]', 'HO1-mCherry-hiPSC-derived flat renal organoids', 'Y'),
  ('CC(C(=O)O)c1cccc(C(=O)c2ccccc2)c1 (stereo not shown) [Ketoprofen]', 'HO1-mCherry-hiPSC-derived flat renal organoids', 'Y'),
  ('C[C@@H]1C[C@H]2[C@@H]3CCC4=CC(=O)C=C[C@]4(C)[C@@]3(F)[C@@H](O)C[C@]2(C)[C@@]1(O)C(=O)CO [Dexamethasone]', 'HO1-mCherry-hiPSC-derived flat renal organoids', 'N'),
  ('O=P1(NCCCl)OCCCN1CCCl (stereo not shown) [Ifosfamide]', 'HO1-mCherry-hiPSC-derived flat renal organoids', 'Y');
